Tested on: LNCAP AR
Experiment: IncuCyte % confluence cell growth inhibition, LNCAP AR
Format: cell-based
Details: read-out: IC50 values (μM), LNCAP AR
Note to self: use label 1 only for IC50 readings below 30 µM; a reading exactly at 30 µM still gets label 0.

- COMPOUND: "CC1(C)C(=O)N(c2ccc(C#N)c(C(F)(F)F)c2)C(=O)N1Cc1ccc(-c2c[nH]nn2)cc1 [Compound 14a]"
  CATEGORY LABEL: "label 0"
- COMPOUND: "CC1(C)C(=O)N(c2ccc(C#N)c(C(F)(F)F)c2)C(=S)N1c1ccc(-c2c[nH]nn2)cc1 [Compound 16a]"
  CATEGORY LABEL: "label 1"
- COMPOUND: "CC1(C)C(=O)N(c2ccc(C#N)c(C(F)(F)F)c2)C(=O)N1Cc1ccc(-c2c[nH]nn2)c(F)c1 [Compound 19b]"
  CATEGORY LABEL: "label 0"
- COMPOUND: "CC1(C)C(=O)N(c2ccc(C#N)c(C(F)(F)F)c2)C(=S)N1Cc1ccc(-c2c[nH]nn2)cc1F [Compound 19d]"
  CATEGORY LABEL: "label 1"
- COMPOUND: "CC1(C)C(=O)N(c2ccc(C#N)c(C(F)(F)F)c2)C(=S)N1Cc1ccc(-c2c[nH]nn2)c(F)c1 [Compound 19c]"
  CATEGORY LABEL: "label 1"
- COMPOUND: "CC1(C)C(=O)N(c2ccc(C#N)c(C(F)(F)F)c2)C(=S)N1Cc1ccc(-c2c[nH]nn2)cc1 [Compound 15a]"
  CATEGORY LABEL: "label 1"
